All values here come from paper PMC8605023.

Molecular target: NTF2 domain of G3BP2 (Homo sapiens)
Sequence (Q9UN86 11-133 limits assumed): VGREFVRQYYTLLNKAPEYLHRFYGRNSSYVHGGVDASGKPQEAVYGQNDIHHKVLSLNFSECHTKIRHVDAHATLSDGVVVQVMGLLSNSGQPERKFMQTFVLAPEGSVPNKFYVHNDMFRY
Peptide text beside a SMILES is read from it.

molecule: CC[C@H](C)[C@H](NC(=O)CNC(=O)[C@H](CO)NC(=O)[C@H](C)NC(=O)[C@H](CC(C)C)NC(=O)[C@H](C)NC(=O)[C@H](CC(=O)O)NC(C)=O)C(=O)N[C@H](C(=O)N[C@@H](Cc1ccccc1)C(=O)NCC(=O)N[C@@H](CC(=O)O)C(=O)N[C@@H](Cc1ccccc1)C(=O)N[C@@H](CC(=O)O)C(=O)N[C@@H](CC(=O)O)C(=O)N[C@@H](Cc1ccc(O)cc1)C(N)=O)[C@@H](C)O
readout.unit: µM
IC50: 11
--
molecule: CC[C@H](C)[C@H](NC(=O)[C@@H]1CCCN1C(=O)[C@@H]1CCCN1C(=O)[C@@H](NC(=O)[C@@H]1CCCN1C(C)=O)C(C)C)C(=O)N[C@@H](CCC(=O)O)C(=O)N[C@@H](Cc1ccccc1)C(=O)NCC(=O)N[C@H](C(=O)N[C@@H](CO)C(=O)N1CCC[C@H]1C(=O)N[C@@H](CCCCN)C(=O)N[C@@H](CC(=O)O)C(=O)N[C@@H](CO)C(=O)N[C@@H](CC(=O)O)C(=O)N[C@@H](Cc1ccc(O)cc1)C(N)=O)C(C)C [PRRC2B 1780-1794 Human] (Ac-PVPPIEFGVSPKDSDY-NH2)
readout.unit: µM
IC50: 53
--
molecule: CC(=O)N[C@@H](CC(C)C)C(=O)N[C@H](C(=O)N[C@@H](Cc1ccccc1)C(=O)NCC(=O)N[C@@H](CC(=O)O)C(=O)N[C@@H](Cc1ccccc1)C(=O)N[C@@H](CC(=O)O)C(=O)N[C@@H](CCC(=O)O)C(=O)N[C@@H](Cc1c[nH]cn1)C(=O)N[C@@H](CCC(=O)O)C(=O)N[C@H](C(=O)N[C@@H](CC(=O)O)C(=O)N[C@@H](Cc1ccc(O)cc1)C(N)=O)C(C)C)[C@@H](C)O
readout.unit: µM
IC50: 13

* * *

Molecular target: NTF2 domain of G3BP2 (Homo sapiens, UniProt Q9UN86)
Peptide text beside a SMILES is read from it.

molecule: CC(=O)N[C@@H](CCC(N)=O)C(=O)NCC(=O)N[C@@H](CC(C)C)C(=O)N1CCC[C@H]1C(=O)N[C@@H](CC(C)C)C(=O)N[C@@H](CCC(=O)O)C(=O)N[C@@H](Cc1ccccc1)C(=O)NCC(=O)N[C@@H](C)C(=O)N[C@@H](CO)C(=O)N[C@@H](C)C(=O)N[C@@H](CCC(=O)O)C(=O)N[C@H](C(=O)N[C@H](C(=O)N[C@@H](CCCNC(=N)N)C(=O)N[C@@H](Cc1ccc(O)cc1)C(N)=O)C(C)C)[C@@H](C)O [NSP3 958-972 Sars-CoV]
readout.unit: µM
Kd: 47
--
molecule: CC(=O)N[C@@H](C)C(=O)N1CCC[C@H]1C(=O)N[C@@H](CCCNC(=N)N)C(=O)N[C@@H](C)C(=O)N[C@H](C(=O)N[C@H](C(=O)N[C@@H](Cc1ccccc1)C(=O)NCC(=O)N[C@@H](CC(=O)O)C(=O)N[C@@H](CC(N)=O)C(=O)N[C@@H](CC(N)=O)C(=O)N[C@@H](CC(=O)O)C(=O)N[C@@H](CC(N)=O)C(=O)N[C@@H](CC(N)=O)C(=O)N[C@H](C(=O)N[C@@H](Cc1ccc(O)cc1)C(N)=O)[C@@H](C)O)[C@@H](C)O)C(C)C [N 6-20 Mers1] (Ac-APRAVTFGDNNDNNTY-NH2)
readout.unit: µM
Kd: 26

* * *

Biological target: NTF2 domain of G3BP1 (Homo sapiens, UniProt Q13283)
Sequence (Q13283 11-133 limits assumed): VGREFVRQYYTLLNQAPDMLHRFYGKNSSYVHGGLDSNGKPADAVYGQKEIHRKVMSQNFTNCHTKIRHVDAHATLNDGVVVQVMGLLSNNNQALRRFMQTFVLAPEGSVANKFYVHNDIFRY
pKi: −log10 of the molar value.

compound.structure.string: CC(=O)N[C@@H](CCC(N)=O)C(=O)NCC(=O)N[C@@H](CC(C)C)C(=O)N1CCC[C@H]1C(=O)N[C@@H](CC(C)C)C(=O)N[C@@H](CCC(=O)O)C(=O)N[C@@H](Cc1ccccc1)C(=O)NCC(=O)N[C@@H](C)C(=O)N[C@@H](CO)C(=O)N[C@@H](C)C(=O)N[C@@H](CCC(=O)O)C(=O)N[C@H](C(=O)N[C@H](C(=O)N[C@@H](CCCNC(=N)N)C(=O)N[C@@H](Cc1ccc(O)cc1)C(N)=O)C(C)C)[C@@H](C)O
pKi: 3.92

* * *

Target or system NTF2 domain of G3BP1 (Homo sapiens); recorded quantity IC50.
Peptide text beside a SMILES is read from it.
quantity.kind: IC50 (µM)

compound: CC[C@H](C)[C@H](NC(=O)[C@H](Cc1ccccc1)NC(=O)[C@H](CC(N)=O)NC(=O)[C@H](Cc1ccc(O)cc1)NC(=O)[C@@H]1CCCN1C(=O)CNC(=O)[C@H](CCC(N)=O)NC(=O)[C@H](CCSC)NC(=O)[C@H](CCC(N)=O)NC(=O)[C@H](C)NC(C)=O)C(=O)N[C@@H](CCC(N)=O)C(=O)N[C@@H](CC(=O)O)C(=O)N[C@@H](CO)C(=O)N[C@@H](CCSC)C(=O)N[C@@H](CC(C)C)C(=O)N[C@@H](CC(=O)O)C(N)=O [CAPRIN1 364-379 Human] (Ac-AQMQGPYNFIQDSMLD-NH2)
assayed.system: NTF2 domain of G3BP1 (Homo sapiens)
reported: 46

compound: CC[C@H](C)[C@H](NC(=O)[C@@H]1CCCN1C(=O)[C@@H]1CCCN1C(=O)[C@@H](NC(=O)[C@@H]1CCCN1C(C)=O)C(C)C)C(=O)N[C@@H](CCC(=O)O)C(=O)N[C@@H](Cc1ccccc1)C(=O)NCC(=O)N[C@H](C(=O)N[C@@H](CO)C(=O)N1CCC[C@H]1C(=O)N[C@@H](CCCCN)C(=O)N[C@@H](CC(=O)O)C(=O)N[C@@H](CO)C(=O)N[C@@H](CC(=O)O)C(=O)N[C@@H](Cc1ccc(O)cc1)C(N)=O)C(C)C [PRRC2B 1780-1794 Human] (Ac-PVPPIEFGVSPKDSDY-NH2)
assayed.system: NTF2 domain of G3BP1 (Homo sapiens)
reported: 33

compound: CC[C@H](C)[C@H](NC(=O)[C@H](CCCNC(=N)N)NC(=O)[C@@H]1CCCN1C(=O)[C@H](C)NC(C)=O)C(=O)N[C@H](C(=O)N[C@@H](Cc1ccccc1)C(=O)NCC(=O)NCC(=O)N1CCC[C@H]1C(=O)N[C@@H](CO)C(=O)N[C@@H](CC(=O)O)C(=O)N[C@@H](CO)C(=O)N[C@H](C(=O)NCC(=O)N[C@@H](CO)C(=O)N[C@@H](Cc1ccc(O)cc1)C(N)=O)[C@@H](C)O)[C@@H](C)O [N 12-26 Sars-CoV2] (Ac-APRITFGGPSDSTGSY-NH2)
assayed.system: NTF2 domain of G3BP1 (Homo sapiens)
reported: 17

* * *

Form field: pIC50 (one value per entry).
Target: NTF2 domain of G3BP1 (Homo sapiens, UniProt Q13283)
pIC50: −log10 of the molar value. Peptide text beside a SMILES is read from it.
quantity.kind: pIC50

molecule: CC(=O)N[C@@H](CC(C)C)C(=O)N[C@H](C(=O)N[C@@H](Cc1ccccc1)C(=O)NCC(=O)N[C@@H](CC(=O)O)C(=O)N[C@@H](Cc1ccccc1)C(=O)N[C@@H](CC(=O)O)C(=O)N[C@@H](CCC(=O)O)C(=O)N[C@@H](Cc1c[nH]cn1)C(=O)N[C@@H](CCC(=O)O)C(=O)N[C@H](C(=O)N[C@@H](CC(=O)O)C(=O)N[C@@H](Cc1ccc(O)cc1)C(N)=O)C(C)C)[C@@H](C)O
assayed.system: NTF2 domain of G3BP1 (Homo sapiens, UniProt Q13283)
quantity.kind: pIC50
reported: 4.64

molecule: CC[C@H](C)[C@H](NC(=O)[C@H](CCCNC(=N)N)NC(=O)[C@@H]1CCCN1C(=O)[C@H](C)NC(C)=O)C(=O)N[C@H](C(=O)N[C@@H](Cc1ccccc1)C(=O)NCC(=O)NCC(=O)N1CCC[C@H]1C(=O)N[C@H](C(=O)N[C@@H](CC(=O)O)C(=O)N[C@@H](CO)C(=O)N[C@H](C(=O)N[C@@H](CC(=O)O)C(=O)N[C@@H](CC(N)=O)C(=O)N[C@@H](Cc1ccc(O)cc1)C(N)=O)[C@@H](C)O)[C@@H](C)O)[C@@H](C)O [N 13-27 Sars-CoV] (Ac-APRITFGGPTDSTDNY-NH2)
assayed.system: NTF2 domain of G3BP1 (Homo sapiens, UniProt Q13283)
quantity.kind: pIC50
reported: 5.00
